# assayedSystem: dephosphorylated FGFR1 (SEQ ID NO: 1, amino acids 458 to 765) (Homo sapiens (Human), UniProt P11362)
# Sequence (P11362 458-765): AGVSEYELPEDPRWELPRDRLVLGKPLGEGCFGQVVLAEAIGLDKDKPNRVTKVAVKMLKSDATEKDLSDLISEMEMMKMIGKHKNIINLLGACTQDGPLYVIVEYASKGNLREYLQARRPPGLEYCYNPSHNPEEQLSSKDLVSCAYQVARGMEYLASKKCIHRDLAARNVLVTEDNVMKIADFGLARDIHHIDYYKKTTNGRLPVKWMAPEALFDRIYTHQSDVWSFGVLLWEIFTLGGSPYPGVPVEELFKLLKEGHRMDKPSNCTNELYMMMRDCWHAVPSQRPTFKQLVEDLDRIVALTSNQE
# testProtocol: FGFR enzyme binding assay (HTRF tracer displacement), FGFR1
# conditionParameters: 5 nM dephosphorylated FGFR1, average of multiple determinations if made
Listing of entries alongside the reported pIC50.
In simple prose, pIC50 is minus the logarithm base ten of a concentration in moles per litre.

Query string: I am curious: what pIC50 value has been reported for C=CC(=O)NC1CCN(C(=O)c2ccc(-c3cc(OC)c4c(C#N)cnn4c3)cc2)CC1 [Example 165] ?
Result string: 6.10

Query string: Param item = C=CC(=O)N1CC(C(=O)N2CCC(n3cc(-c4cc(C(C)C)c5c(C#N)cnn5c4)cn3)CC2)C1 [Example 129] ; retrieve measured pIC50.
Result string: 6.57

Query string: Record request: pIC50 value, item C=CC(=O)Nc1cccc(C(=O)N2CC[C@H](n3cc(-c4cc(OC)c5c(C#N)cnn5c4)cn3)C2)c1 [Example 67]
Result string: 7.33

Query string: If you can, please state the reported pIC50 value of C=CC(=O)N1CC(C(=O)N2CCN(c3ccc(-c4cc(OC)c5c(C#N)cnn5c4)cn3)CC2)C1 [Example 111] .
Result string: 6.84

Query string: What value of measured pIC50 is listed for C=CC(=O)N1CC(C(=O)N2CCC(n3cc(-c4cc(OC)c5c(C#N)cnn5c4)cn3)CC2)C1(C)C (centres unmarked) [Example 43] ?
Result string: 7.27

Query string: What does the data say about its pIC50? Entry: C=CS(=O)(=O)N1CC(C(=O)N2CCC(n3cc(-c4cc(OC)c5c(C#N)cnn5c4)cn3)CC2)C1 [Example 192]
Result string: 7.15

Query string: Endpoint output: pIC50 of C=CC(=O)N1CCC(C(=O)N2CCC(n3cc(-c4cc(OC)c5c(C#N)cnn5c4)cn3)CC2)C(F)(F)C1 (centres unmarked) [Example 15] . Value?
Result string: 7.49

Query string: Record request: pIC50 value, item C=CC(=O)N1CCC(C(=O)N2CCC(n3ncc(-c4cc(OC)c5c(C#N)cnn5c4)c3C)CC2)CC1 [Example 82]
Result string: 6.43

Query string: Query: pIC50; subject: COc1cc(-c2nn(C3CCN(C(=O)C4(F)CN(C(=O)/C=C/CN(C)C)C4)CC3)nc2C)cn2ncc(C#N)c12 [Example 163]
Result string: 5.94

Query string: Field request: pIC50 | item: C=CC(=O)N1CC(C(=O)N2CC3CCC(C2)N3c2ccc(-c3cc(OC)c4c(C#N)cnn4c3)cn2)C1 [Example 51]
Result string: 7.15

Query string: Value lookup for pIC50; key = C=CC(=O)Nc1ccc(C(=O)N2CC[C@H](n3cc(-c4cc(OC)c5c(C#N)cnn5c4)cn3)C2)cc1C [Example 70]
Result string: 6.70

Query string: Value lookup for pIC50; key = COc1cc(-c2cnn(C3CCN(C(=O)C4CN(C(=O)/C=C/CN5CCCCC5)C4)CC3)c2)cn2ncc(C#N)c12 [Example 145]
Result string: 7.22

Query string: Data request, read-out pIC50, for C=CC(=O)Nc1ccc(C(=O)N2CC[C@H](n3cc(-c4cc(OC)c5c(C#N)cnn5c4)cn3)C2)c(C)c1 [Example 68]
Result string: 7.03

Query string: pIC50 lookup needed for C=CS(=O)(=O)N[C@@H]1CC[C@H](C(=O)N2CCC(n3cc(-c4cc(OC)c5c(C#N)cnn5c4)cn3)CC2)C1 [Example 191] , thanks.
Result string: 6.99
